- measured.on: Bombyx mori EcR (VP16 fusion, CVBE switch construct) (Bombyx mori, UniProt P49881)
- procedure.details: Z3 Assay (HEK-293 cells with CVBE and 6XEcRE LacZ, β-galactosidase reporter)
- condition: HEK293, read-out: Fold Induction, Z3 Assay, 3.3 uM
quantity: fold induction at 3.3 µM
Form rule: numeric answer, no unit written next to it.

Enquiry: Look up fold induction at 3.3 µM: CCC(N(NC(=O)c1cccc(C)c1C)C(=O)c1cc(C)cc(C)c1)C(C)(C)C (stereo not shown)
Return: 1160

Enquiry: Look up fold induction at 3.3 µM: CCOC(=O)C(C)(C)N(NC(=O)c1cccc(OC)c1CC)C(=O)c1cc(C)cc(C)c1
Return: 269

Enquiry: Look up fold induction at 3.3 µM: CCCC(N(NC(=O)c1cccc(OC)c1CC)C(=O)c1cc(OC)c(C)c(OC)c1)C(C)(C)C (stereo not shown)
Return: 1440

Enquiry: Look up fold induction at 3.3 µM: CCC(N(NC(=O)c1cccc(OC)c1C)C(=O)c1cc(C)cc(C)c1)C(C)(C)C (stereo not shown)
Return: 1430

====

Assign Fold Induction, 27-63 Assay, 3.3 uM to each entry below.
- measured.on: GAL4 DBD (1-147)-CfEcR(DEF)/VP16AD-βRXREF-LmUSPEF (Choristoneura fumiferana)
- procedure.details: cell-based
- condition: 3.3 uM ligand; RLU ligand treated / RLU DMSO treated cells; average of two wells
Form rule: numeric answer, no unit written next to it.

Enquiry: Look up Fold Induction, 27-63 Assay, 3.3 uM: Cc1ccc([N+](=O)[O-])c(C(=O)N(NC(=O)c2ccc3c(c2C)OCCO3)C(C)(C)C)c1 [RG-115384]
Return: 1713

Enquiry: Look up Fold Induction, 27-63 Assay, 3.3 uM: COc1cccc(C(=O)NN(C(=O)c2cc(C)cc(C)c2)C(C)(C)C)c1N [RG-115378]
Return: 1493

Enquiry: Look up Fold Induction, 27-63 Assay, 3.3 uM: CCCC(N(NC(=O)c1cccc(OC)c1C)C(=O)c1cc(OC)c(C)c(OC)c1)C(C)(C)C (stereo not shown) [RG-115824]
Return: 2675

Enquiry: Look up Fold Induction, 27-63 Assay, 3.3 uM: CCCC(N(NC(=O)c1cccc(OC)c1CC)C(=O)c1cc(C)cc(C)c1)C(C)(C)C (stereo not shown) [RG-115830]
Return: 2287

====

- procedure.details: Bi-directional permeability, CACO-2
- Assay type: in vitro ADME
- condition: human, Caco-2, pH 7, Papp, A-to-B Avg
Assign Papp A→B at 2 h, 10 µM to each entry below.
# number only, unit ×10⁻⁶ cm/s dropped from output

Enquiry: Look up Papp A→B at 2 h, 10 µM: CCc1ccc(C(=O)NN(C(=O)c2cc(C)cc(C)c2)C(C)(C)C)cc1
Return: 26

Enquiry: Look up Papp A→B at 2 h, 10 µM: CCC(N(NC(=O)c1cccc(C)c1C)C(=O)c1cc(C)cc(C)c1)C(C)(C)C (centres unmarked)
Return: 24.5

Enquiry: Look up Papp A→B at 2 h, 10 µM: CCc1ccc(C(=O)NN(C(=O)c2cc(C)cc(C)c2)C(C)(C)C)c(F)c1
Return: 25.4

Enquiry: Look up Papp A→B at 2 h, 10 µM: COc1ccc(C(=O)N(NC(=O)c2ccc3c(c2C)OCCO3)C(C)(C)C)c(OC)n1
Return: 28.8

Enquiry: Look up Papp A→B at 2 h, 10 µM: Cc1cc(C)cc(C(=O)N(NC(=O)c2ccc3c(c2C)OCCO3)C(C)(C)C)c1
Return: 28

====

- System: Caco-2 monolayers
- procedure.details: Bi-directional permeability, CACO-2
- Type: in vitro ADME
- condition: Caco-2
Assign Papp, A-to-B Rep. 2 to each entry below.

Enquiry: Look up Papp, A-to-B Rep. 2: CCCC(N(NC(=O)c1cccc(OC)c1C)C(=O)c1cc(C)cc(C)c1)C(C)(C)C (stereo not shown)
Return: 17.8 10^−6 cm/s

Enquiry: Look up Papp, A-to-B Rep. 2: CC(=O)c1ccc(C(=O)NN(C(=O)c2cc(C(=O)O)cc(C(=O)O)c2)C(C)(C)C)cc1
Return: 0.18 10^−6 cm/s

Enquiry: Look up Papp, A-to-B Rep. 2: CCc1c(OC)cccc1C(=O)NN(C(=O)c1ccccc1S(=O)(=O)O)C(C)(C)C
Return: 0.18 10^−6 cm/s

Enquiry: Look up Papp, A-to-B Rep. 2: CC(O)c1ccc(C(=O)NN(C(=O)c2cc(CO)cc(CO)c2)C(C)(C)C)cc1 (stereo not shown)
Return: 0.22 10^−6 cm/s

====

- measured.on: Bombyx mori EcR (VP16 fusion, CVBE switch construct) (Bombyx mori, UniProt P49881)
- Sequence (P49881 86-606): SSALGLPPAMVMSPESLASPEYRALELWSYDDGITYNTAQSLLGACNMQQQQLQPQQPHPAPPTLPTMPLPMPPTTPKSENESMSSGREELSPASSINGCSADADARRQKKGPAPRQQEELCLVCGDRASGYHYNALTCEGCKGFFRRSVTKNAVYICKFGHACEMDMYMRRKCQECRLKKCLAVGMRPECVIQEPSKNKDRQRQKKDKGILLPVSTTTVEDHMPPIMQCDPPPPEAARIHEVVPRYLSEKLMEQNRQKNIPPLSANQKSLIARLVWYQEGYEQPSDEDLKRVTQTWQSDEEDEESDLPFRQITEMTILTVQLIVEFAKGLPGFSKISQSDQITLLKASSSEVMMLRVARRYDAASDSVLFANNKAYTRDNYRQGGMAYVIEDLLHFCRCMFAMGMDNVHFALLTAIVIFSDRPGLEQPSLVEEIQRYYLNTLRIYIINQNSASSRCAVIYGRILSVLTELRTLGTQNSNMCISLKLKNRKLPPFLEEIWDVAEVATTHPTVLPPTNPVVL
- Sequence (P19793 1-462 partner): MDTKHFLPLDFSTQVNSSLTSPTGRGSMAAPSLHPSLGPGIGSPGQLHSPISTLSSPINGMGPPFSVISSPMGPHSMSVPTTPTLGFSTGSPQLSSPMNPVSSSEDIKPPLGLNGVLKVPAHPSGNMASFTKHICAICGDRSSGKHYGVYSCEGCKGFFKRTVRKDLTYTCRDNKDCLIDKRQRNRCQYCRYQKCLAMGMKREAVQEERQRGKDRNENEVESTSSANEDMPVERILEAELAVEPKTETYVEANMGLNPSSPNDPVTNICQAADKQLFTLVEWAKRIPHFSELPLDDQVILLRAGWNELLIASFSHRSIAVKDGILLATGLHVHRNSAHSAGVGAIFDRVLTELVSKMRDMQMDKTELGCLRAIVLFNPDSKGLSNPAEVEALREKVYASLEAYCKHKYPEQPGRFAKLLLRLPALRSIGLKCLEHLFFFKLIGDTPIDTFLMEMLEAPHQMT
- procedure.details: Z3 Assay (HEK-293 cells with CVBE and 6XEcRE LacZ, β-galactosidase reporter)
- condition: read-out: Z3 assay EC50; HEK-293 Z3 cells, β-galactosidase reporter; average of two wells
quantity: EC50 (nM)
# number only, unit nM dropped from output

Enquiry: Look up EC50: COc1ccc(Cl)cc1C(=O)N(NC(=O)c1cccc(C)c1C)C(C)(C)C [RG-101178]
Return: 1320

Enquiry: Look up EC50: CCc1c(OC)cccc1C(=O)NN(C(=O)c1cc(OC)ccc1OC)C(C)(C)C [RG-100779]
Return: 178

Enquiry: Look up EC50: COc1cccc(C(=O)NN(C(=O)c2cc(C)cc(C)c2)C(C)(C)C)c1N [RG-115378]
Return: 324

Enquiry: Look up EC50: CCC(N(NC(=O)c1cccc(C)c1C)C(=O)c1cccc(C)c1)C(C)(C)C (stereo not drawn) [RG-104074]
Return: 307

Enquiry: Look up EC50: CCc1c(C(=O)NN(C(=O)c2ccc(F)cc2)C(C)(C)C)ccc2c1OCOC2 [RG-100574]
Return: 1120

Enquiry: Look up EC50: CCc1c(C(=O)NN(C(=O)c2ccccc2OC)C(C)(C)C)ccc2c1OCCO2 [RG-100690]
Return: 240

====

- measured.on: Bombyx mori EcR (VP16 fusion, CVBE switch construct) (Bombyx mori)
- Sequence (P49881 86-606): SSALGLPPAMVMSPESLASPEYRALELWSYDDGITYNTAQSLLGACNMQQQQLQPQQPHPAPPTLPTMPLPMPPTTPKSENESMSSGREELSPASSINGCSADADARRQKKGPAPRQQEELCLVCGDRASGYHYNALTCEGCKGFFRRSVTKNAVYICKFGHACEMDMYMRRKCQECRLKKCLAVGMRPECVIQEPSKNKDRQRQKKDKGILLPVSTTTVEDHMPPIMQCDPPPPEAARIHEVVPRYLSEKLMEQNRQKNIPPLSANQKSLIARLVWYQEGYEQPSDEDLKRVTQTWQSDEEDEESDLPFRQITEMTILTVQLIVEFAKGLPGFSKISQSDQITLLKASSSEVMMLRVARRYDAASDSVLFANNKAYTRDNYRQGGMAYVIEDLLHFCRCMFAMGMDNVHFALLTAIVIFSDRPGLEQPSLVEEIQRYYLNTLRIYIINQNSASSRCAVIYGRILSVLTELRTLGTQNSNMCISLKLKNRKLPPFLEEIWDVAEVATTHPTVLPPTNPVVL
- Sequence (P19793 1-462 partner): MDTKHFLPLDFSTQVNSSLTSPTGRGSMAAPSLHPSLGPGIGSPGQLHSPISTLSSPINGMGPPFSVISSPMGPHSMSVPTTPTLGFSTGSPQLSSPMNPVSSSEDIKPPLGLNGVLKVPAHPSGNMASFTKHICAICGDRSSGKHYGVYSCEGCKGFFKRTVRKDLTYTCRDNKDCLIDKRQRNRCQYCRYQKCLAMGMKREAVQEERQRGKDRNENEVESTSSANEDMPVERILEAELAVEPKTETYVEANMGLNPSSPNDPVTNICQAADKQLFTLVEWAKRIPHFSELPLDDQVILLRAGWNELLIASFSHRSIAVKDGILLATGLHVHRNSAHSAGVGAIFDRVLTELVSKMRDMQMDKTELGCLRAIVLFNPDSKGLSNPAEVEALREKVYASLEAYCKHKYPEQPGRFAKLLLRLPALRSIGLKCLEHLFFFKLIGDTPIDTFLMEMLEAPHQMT
- procedure.details: Z3 Assay (HEK-293 cells with CVBE and 6XEcRE LacZ, β-galactosidase reporter)
- condition: maximum fold induction at any concentration relative to that of GS-E ligand; HEK-293 Z3 cells
Cut-off 0.9 on Z3 assay Rel Max FI: below means rule met, at or above means rule not met.

Enquiry: Problem: For the molecule COc1cccc(C(=O)N(NC(=O)c2ccc3c(c2C)OCCO3)C(C)(C)C)c1 , is Z3 assay Rel Max FI under 0.9?
Return: rule not met

Enquiry: Problem: For the molecule CCc1ccc(C(=O)NN(C(=O)c2ccccc2OC)C(C)(C)C)c(F)c1 , is Z3 assay Rel Max FI under 0.9?
Return: rule met

Enquiry: Problem: For the molecule Cc1c(C(=O)NN(C(=O)c2cc(Cl)nc(Cl)c2)C(C)(C)C)ccc2c1OCCO2 , is Z3 assay Rel Max FI under 0.9?
Return: rule not met

Enquiry: Problem: For the molecule CC(C)(C)N(NC(=O)c1ccc(Br)cc1)C(=O)c1cc(Cl)cc(Cl)c1 , is Z3 assay Rel Max FI under 0.9?
Return: rule met

Enquiry: Problem: For the molecule CCc1ccc(C(=O)NN(C(=O)c2ccccc2[N+](=O)[O-])C(C)(C)C)cc1 , is Z3 assay Rel Max FI under 0.9?
Return: rule met

Enquiry: Problem: For the molecule CCc1ccc(C(=O)NN(C(=O)c2ccc(OC)nc2OC)C(C)(C)C)c(F)c1 , is Z3 assay Rel Max FI under 0.9?
Return: rule met

Enquiry: Problem: For the molecule CC(C)(C)N(NC(=O)c1ccc2c(c1)OC(F)(F)O2)C(=O)c1ccccc1[N+](=O)[O-] , is Z3 assay Rel Max FI under 0.9?
Return: rule met

Enquiry: Problem: For the molecule CCc1ccc(C(=O)NN(C(=O)c2cc(C)cc(C)c2)C(C)(C)C)cc1Cl , is Z3 assay Rel Max FI under 0.9?
Return: rule not met

Enquiry: Problem: For the molecule C=Cc1c(OC)cccc1C(=O)NN(C(=O)c1cc(F)c(Cl)cc1Cl)C(C)(C)C , is Z3 assay Rel Max FI under 0.9?
Return: rule met

Enquiry: Problem: For the molecule CCCC(N(NC(=O)c1cccc(OC)c1CC)C(=O)c1cc(OC)c(C)c(OC)c1)C(C)(C)C (stereo not shown) , is Z3 assay Rel Max FI under 0.9?
Return: rule not met

Enquiry: Problem: For the molecule CCc1ccc(C(=O)NN(C(=O)c2cc(C)cc(C)c2)C(C)C(C)(C)C)cc1 (stereo not shown) , is Z3 assay Rel Max FI under 0.9?
Return: rule not met

Enquiry: Problem: For the molecule COc1cccc(C(=O)NN(C(=O)c2cc(C)cc(C)c2)C(C)(C)C)c1CS(C)(=O)=O , is Z3 assay Rel Max FI under 0.9?
Return: rule met

Entry source: patent US9102648B1
